Target: USP7
Test: ubiquitin-AMC enzyme inhibition
QUANTITY: IC50 (µM)

| BINDER | READOUT UNITS | NUMERIC VALUE |
| --- | --- | --- |
| VSRCYIFWNEMFCDVE [pep8] | µM | 31.7 |

// data source = patent US20150344888A1
